From: PubChem BioAssay (NCI)

System: SK-MEL-5 melanoma
Test: NCI-60 one-dose screen, 48 h (100 = growth as untreated, 0 = no growth, -100 = all killed)
Details: 10 µM unless noted
The panel holds about 83,000 compounds, 20% with a hit somewhere; the sample as a whole holds those more often.
experimentalEndpoint: growth (%)
The reply should contain only the number, in %.

CN1C(=O)/C(=C/c2ccc(C(=O)Nc3ncc(Cc4ccc(Cl)cc4Cl)s3)cc2)SC1=S : 17.1
O=C(c1ccccc1)c1ccc2nc(-c3ccc(F)cc3)[nH]c2c1 : 60.2
COc1cc2c(c(OC)c1OC)C(=O)CC(c1cccc(NC(=O)c3cc(NC(=O)[C@@H](N)CO)ccc3C)c1)O2 (some centres undefined) : 104
COc1ccc(-c2c(Nn3cnnn3)no[n+]2[O-])cc1 : 75.7
Cc1ccc(Cc2cnc(NC(=O)c3ccc(/C=C4\SC(=S)N(C)C4=O)cc3)s2)cc1 : 19.4

Field growth (SK-MEL-5 melanoma), entry Cn1cc(-c2cc3nc(-c4c[nH]c5ccc(Cl)cc45)cc(N)n3n2)c2ccccc21 : -84.8

Field growth (SK-MEL-5 melanoma), entry CN(C)c1nc(NCCNS(=O)(=O)c2ccc(C3=Nc4c(N)nc(N)nc4NC(c4ccccc4)C3)cc2)nc(Nc2ccc(F)cc2)n1 (centres undefined) : 33.7

Field growth (SK-MEL-5 melanoma), entry CC(C)c1ccc2c(N)c(C(=O)Nc3cccc(C(F)(F)F)c3)sc2n1 : 72.3

Field growth (SK-MEL-5 melanoma), entry Cc1cccc(NC(=O)CN2CCN(c3ncnc4c3cnn4-c3ccccc3)CC2)c1 : 78.5

Field growth (SK-MEL-5 melanoma), entry O=C(NNc1ccccc1)n1c(=O)c2ccccc2c(=O)n1-c1ccccc1 : 101

Field growth (SK-MEL-5 melanoma), entry Cc1ccc([C@H]2C(C(=O)c3ccc(Cl)cc3)C3(N[C@@H]2c2ccccc2)C(=O)Nc2ccccc23)cc1 (some centres undefined) : 34.3
